assayOverview: Phase separation temperature of compatibilizer / Zerol 150 alkylbenzene oil / R134a mixtures (cloud point on cooling)
Type: physicochemical
measurementConditions: near 25.0 wt % Zerol 150 : 25.0 wt % compatibilizer : 50.0 wt % R134a, cooled in one degree intervals
quantity: Phase Separation Temperature (deg C)

INSERT INTO assay_data (molecule, quantityunit, valueobserved) VALUES
  ('CCCCCC=C1CC(C)OC1=O (stereo not shown)', 'deg C', '−7'),
  ('CC(CC=C1C[C@@H](C)OC1=O)CC(C)(C)C (stereo partly shown)', 'deg C', 3),
  ('CCCC=C1CC(C)OC1=O (stereo not shown)', 'deg C', 9),
  ('CCCCCC1CCCC(=O)O1 (stereo not shown)', 'deg C', '−10'),
  ('CCCCCCC1CCCC(=O)O1 (stereo not shown)', 'deg C', '−12'),
  ('CCCCCC[C@@H]1C[C@H](C)OC1=O (relative stereo) [cis-3-hexyl-5-methyl-dihydro-furan-2-one]', 'deg C', '−9'),
  ('CC=C1CC(C)OC1=O (stereo not shown)', 'deg C', 24),
  ('CCCCCC1CCC(=O)O1 (stereo not shown)', 'deg C', '−2'),
  ('CCCCC[C@@H]1C[C@H](C)OC1=O', 'deg C', '−1');

Where do the numbers come from? From patent US20050127321A1.
